assayName: soluble fraction after stress (log2 fold change); higher = more stays soluble; pooled small domains, quantitative proteomics
measurementSetup: stress: 50 degC
Consider the reported soluble fraction (log2) of an entry and match it to a band in group A: < -0.3; group B: ≥ -0.3 and < -0.02; group C: ≥ -0.02

Bin? "HMDFEEGAVKWFNTKKGYGFITRDQGDDIFVHFRNIKAQSRRSLTDGERVTFVVTEGDKGLQADHVSPV" group A

Bin? "HMPVSVAEQKQILAEALQERGHATFRELIENADNRMIVVGRFLALLELYRDGTVRFEQERALGELTIHWEE" group A

Bin? "HMKNTFGLTEREMEVLALIVDGLSNPEIAEKLFITRATAKAHVHSILQKLYVDDRTQAAVTAMREGL" group A

Bin? "HMPTLLGYKHILSAWNPDTNTVFRTSYGYDGEYGSREEAMQALIKMIQEGGKATPRGIEESEVPIY" group B

Bin? "HMHDITPAVAETFKQLRAERGLSLSQAAQLTGVSKAMLGQIERGQSSPTVSTLWKIATGFNVAFSVFL" group A

Bin? "HMAAVSTDEEFAALGIPAEWIPVLKSNGFQTVESLKKVAPGALFNQLGGLRKKNKLEIAMPSLDQVKAWLA" group C

Bin? "HMTKEEFLDEIKKELGFMPYEEVIKAEKYFESYFNGSEADEKVIERFGSPKYAAQNYYRTHVAN" group B

Bin? "HMTSRFITTEEGTLYVDADGRKVSGWQTIDGSRYYFDEHGIRQSGTIEVNGETYVLDEDGVL" group C

Bin? "HMQITDTEAIATTLDEIIAANPKEWERLKAGQEQLVKFFVGQVMRVTKGRANPQVVNDLLKERL" group B

Bin? "HMAKPAALLFEHRFDGMAEMRFRENIVKNDDGSYTYDEYFLSMLDRAGLEKIVQENMEVWIAYAKQ" group A

Bin? "HMSSYETVTLNGQRYFKYKVKSGEGLYAISRMFSTPIAEIIRHNPSSNAGLKNGQELLIPVN" group C

Bin? "HMGPELGENEKLIFDIIKKESKMELGILKAQVDLSNKKWDKALKGLATHGLTKVNKTDDGLFIELI" group B

Bin? "HMRKTLSQEAYEKIKQNLEDGVYQGYINGRQVARDLDIGFTPVREAFLQLQSEGLIRKEDNVGYFV" group C

Bin? "HMGEQLALLERARTLLEDETLETEVQKELEMLLEDIEAARAEANATQLEDLFEELADLLFDLE" group B

Bin? "HMHNSPSPVATTILRFLQPVRAFVGDTEDMRTFGPFLREDVAMVPASQAKNLIRSGHAVEINP" group B

Bin? "HMGTGELLVHVIGAVHSPGVVRLPTGARVVDAIDAAGGAREDAQTEQLNLARLVDDGEQVRVPVVGESVD" group C

Bin? "HMPDFLAELAARMERDAVTEAQIRQVVAQKGHYPEEVSPAQYHPDFFRQWLFPHWEKIVDVIRSSPEYTP" group B

Bin? "HMNHTIEENDRVLILDPRGKKYLITVTNRVFHTNLGKLDISELIGKNYGDKIKSHMGKNFSILKPNLIDYI" group B

Bin? "HMSSLDTLTARETQILAEMAQGKNNAAIAAAVSVSERAVEKHTNSIFAKLGLSEEKDVNRRVMAVLLFLGR" group A

Bin? "HMEQSGDELKTWVDQAIAAYPEKVKEYQQGKKGLLALFIGEVMKRSKGTADPKKVNQLVTEALS" group C

Bin? "HMNDLIFSTLAEYDRDTITEIISVVDNTRGIGYEVELVRKDLIAMAAQAEARRDYLPSVIGDVEVFKRNLL" group C

Bin? "HMPLAQRFGLTVAQARVLDLLAEGRSNRQIGELLGLTEGTVKIHVSAIMKAMGVSNRAEAALMANRKR" group A

Bin? "HMIRMPNLIGLSVRSAEQQLVIAGLKKGIVHQVNDPRLKEVIDMQALGHKITAGSSIPKGTEVDLYIGNGT" group C

Bin? "HMEEEVKVPKIKGLTEAEAKAKLKSEGLESGTARSAYSDTVEEGHIISQSIQEGTKVPKGTAVSYEVSKGK" group C

Bin? "HMGDRRSVFEQSVLDAIKSLVKQGELATTKAISDHIGTNYQGNVSRAITALLADNKIKKLPKEGVLQPYEA" group C

Bin? "HMRTTYKTRLETLLAGPMSAGDRRFASSLLDFYNRKNRLTPGRARFVAQLEDRYSAEALAARQG" group A

Bin? "HMNIAEIGQKVAQQRVALGISQERLAKLSDLSRSTIHHLEHGTLHEIGAAKLFKLLSLLDIQLK" group A

Bin? "HMESRMTYLQKTKLATENLDAKLIDHQQWVAEVLGEDYRGVYSDEYLRRAAKVFAIFVNNLDD" group A

Bin? "HMWQKGEPAITGLKRISKPGLRIYSKNDELPIVYGNRGIAVISTNKGVMTGIEAKRSGVGGEVLFYV" group B

Bin? "HMFTRFTVAQDGWTIGGFTAKEMAVSTAKQHAVDTGKPVTVVAHVAGGGSREAIFNSDGTNDKIWN" group C

Bin? "HMLELTGEEEFVIRTLTRQGDLHINALVVETDIPINRMISLLFELEMKGVVKALVGGVYHLLG" group A

Bin? "HMKGQLVVFPNPASSNDMVRFNKNISFSIFDITGHLVDTKRNVNELSVGNLEAGTYILRTEQGDVLRMVI" group A
